Measured EC50 of individual entries
tested-target: LCAT (Homo sapiens (Human), UniProt P04180)
Sequence (P04180 25-440): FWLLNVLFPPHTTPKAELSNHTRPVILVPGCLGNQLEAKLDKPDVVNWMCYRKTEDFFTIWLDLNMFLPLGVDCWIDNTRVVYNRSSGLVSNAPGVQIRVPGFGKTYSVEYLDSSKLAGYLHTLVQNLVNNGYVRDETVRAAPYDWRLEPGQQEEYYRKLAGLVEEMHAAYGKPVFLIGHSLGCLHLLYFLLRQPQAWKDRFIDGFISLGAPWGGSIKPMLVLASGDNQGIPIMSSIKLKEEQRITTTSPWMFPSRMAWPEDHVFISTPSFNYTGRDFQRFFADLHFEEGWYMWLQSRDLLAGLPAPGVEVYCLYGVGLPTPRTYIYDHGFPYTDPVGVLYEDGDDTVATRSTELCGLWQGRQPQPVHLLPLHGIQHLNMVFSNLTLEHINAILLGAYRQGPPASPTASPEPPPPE
experiment-summary: LCAT activity measurement (in vitro), HDL3 fraction from human plasma as enzyme source and acceptor
experimental-conditions: HDL3 1 mg/mL from plasma of a healthy person, [14C]cholesterol, 37° C., approximately 16 hours; read-out: EC50 of LCAT activation
Answer as a quantity: numeral, then unit.

compound	tested-target	EC50
O=C1Nc2[nH]nc(C3CCN(c4cnc(C(F)(F)F)cn4)CC3)c2C(O)(C(F)(F)F)C1O (single isomer, unassigned; (+))	LCAT (Homo sapiens (Human), UniProt P04180)	4 nM

IN: Value wanted: EC50 (LCAT (Homo sapiens (Human), UniProt P04180)) of entry O=C1Nc2[nH]nc(C3CCN(c4cnc(C(F)(F)F)nc4)CC3)c2[C@@H](C(F)(F)F)[C@H]1O
OUT: 18 nM
